Molecular target: MMP-14CD (catalytic domain of MMP-14) (Homo sapiens, UniProt P50281)
Assay: Thiopeptolide hydrolysis assay, MMP-14CD
Assay type: biochemical
Conditions: Table 2; thiopeptolide substrate, HEPES pH 7.0; read-out: IC50 (μM) Versus Certain MMPs: MMP14 (CD)
EXPERIMENTAL ENDPOINT: IC50

# COMPOUND, IC50
data = [
    ("COc1ccc(CNC(=O)c2ccc3c(c2)S(=O)(=O)N(Cc2ccc4ccccc4c2)C(=O)N3C)cc1", "> 30 µM"),
    ("COc1ccc(CNC(=O)c2ccc3c(c2)S(=O)(=O)N(Cc2ccccc2)C(=O)N3C)cc1", "> 30 µM"),
    ("COc1cccc(CNC(=O)c2ccc3c(c2)S(=O)(=O)N(Cc2ccccc2)C(=O)N3C)c1", "> 30 µM"),
]

State the recorded IC50 for this entry: COc1ccc(CNC(=O)c2ccc3c(c2)S(=O)(=O)N(Cc2ccc(CC(=O)O)cc2)C(=O)N3C)cc1
> 100 µM

State the recorded IC50 for this entry: CN1C(=O)N(Cc2ccc(C(=O)O)cc2)S(=O)(=O)c2cc(C(=O)NCc3ccccc3)ccc21
> 100 µM

State the recorded IC50 for this entry: COc1ccc(CNC(=O)c2ccc3c(c2)S(=O)(=O)N(Cc2ccc(C(=O)NC(C(=O)O)C(C)C)cc2)C(=O)N3C)cc1 (stereo not shown)
> 100 µM

State the recorded IC50 for this entry: CN1C(=O)N(Cc2ccccc2)S(=O)(=O)c2cc(C(=O)NCc3ccc4nsnc4c3)ccc21
> 30 µM

----------
Molecular target: MMP-1FL (full-length interstitial collagenase) (Homo sapiens, UniProt P03956)
Sequence (P03956 100-469): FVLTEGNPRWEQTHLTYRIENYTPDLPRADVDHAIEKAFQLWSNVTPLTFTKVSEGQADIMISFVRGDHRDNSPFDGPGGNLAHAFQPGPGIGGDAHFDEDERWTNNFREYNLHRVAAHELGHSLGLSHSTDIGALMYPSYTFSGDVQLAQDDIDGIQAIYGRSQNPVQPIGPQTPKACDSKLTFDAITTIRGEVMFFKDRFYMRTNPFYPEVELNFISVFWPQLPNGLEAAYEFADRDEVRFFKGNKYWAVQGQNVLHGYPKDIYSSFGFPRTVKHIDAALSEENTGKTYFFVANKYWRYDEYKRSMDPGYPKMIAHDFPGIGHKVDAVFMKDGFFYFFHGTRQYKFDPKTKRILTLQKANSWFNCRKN
Assay: Thiopeptolide hydrolysis assay, MMP-1FL
Type: biochemical
Conditions: Table 2; thiopeptolide substrate, HEPES pH 7.0; read-out: IC50 (μM) Versus Certain MMPs: MMP01 (FL)
EXPERIMENTAL ENDPOINT: IC50

# COMPOUND, IC50
data = [
    ("COc1cccc(CNC(=O)c2ccc3c(c2)S(=O)(=O)N(Cc2ccccc2)C(=O)N3C)c1", "> 30 µM"),
    ("COc1ccc(CNC(=O)c2ccc3c(c2)S(=O)(=O)N(Cc2ccc(-c4nn[nH]n4)cc2)C(=O)N3C)cc1", "> 100 µM"),
    ("CN1C(=O)N(Cc2ccccc2)S(=O)(=O)c2cc(C(=O)NCc3ccc(F)cc3)ccc21", "> 100 µM"),
    ("COc1ccc(CNC(=O)c2ccc3c(c2)S(=O)(=O)N(Cc2ccc(C#N)cc2)C(=O)N3C)cc1", "> 30 µM"),
]

Lab request: please report IC50 under test system MMP-1FL (full-length interstitial collagenase) (Homo sapiens, UniProt P03956) for COc1ccc(CNC(=O)c2ccc3c(c2)S(=O)(=O)N(Cc2ccc(C(=O)NC(C(=O)O)C(C)C)cc2)C(=O)N3C)cc1 (stereo not drawn)
> 100 µM

Lab request: please report IC50 under test system MMP-1FL (full-length interstitial collagenase) (Homo sapiens, UniProt P03956) for COc1ccc(CNC(=O)c2ccc3c(c2)S(=O)(=O)N(Cc2ccc4ccccc4c2)C(=O)N3C)cc1
> 30 µM

----------
Biological target: MMP-3CD (catalytic domain of stromelysin-1) (Homo sapiens, UniProt P08254)
Sequence (P08254 100-272 limits assumed): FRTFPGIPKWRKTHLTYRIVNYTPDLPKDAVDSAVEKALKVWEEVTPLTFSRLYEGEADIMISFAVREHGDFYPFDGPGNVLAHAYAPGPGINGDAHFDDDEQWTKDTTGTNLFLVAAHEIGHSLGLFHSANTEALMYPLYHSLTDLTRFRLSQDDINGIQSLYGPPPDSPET
Experiment: Thiopeptolide hydrolysis assay, MMP-3CD
Type: biochemical
Settings: Table 2; thiopeptolide substrate, MES buffer pH 6.0; read-out: IC50 (μM) Versus Certain MMPs: MMP03 (CD)
EXPERIMENTAL ENDPOINT: IC50

Below: 2 compounds and their reported IC50.
# COMPOUND, EXPERIMENTAL ENDPOINT, ENDPOINT RESULT
records = [
    ("COc1ccc(CNC(=O)c2ccc3c(c2)S(=O)(=O)N(Cc2ccc(C(=O)O)cc2)C(=O)N3C)cc1 [Example 13]", "IC50", "64 µM"),
    ("COc1ccc(CNC(=O)c2ccc3c(c2)S(=O)(=O)N(Cc2ccc(C(N)=O)cc2)C(=O)N3C)cc1 [Example 14]", "IC50", "> 100 µM"),
]

State the recorded IC50 for this entry: CN1C(=O)N(Cc2ccccc2)S(=O)(=O)c2cc(C(=O)NCc3ccc(F)cc3)ccc21 [Example 16]
> 100 µM

State the recorded IC50 for this entry: COc1cccc(CNC(=O)c2ccc3c(c2)S(=O)(=O)N(Cc2ccc(C(=O)O)cc2)C(=O)N3C)c1 [Example 31]
> 30 µM

----------
Target: MMP-13CD (catalytic domain of collagenase 3) (Homo sapiens)
Assay: Thiopeptolide hydrolysis assay, MMP-13CD
Type: biochemical
Settings: Table 2; thiopeptolide substrate, HEPES pH 7.0; read-out: IC50 (μM) Versus Certain MMPs: MMP13 (CD)
EXPERIMENTAL ENDPOINT: IC50 (µM)

Below: 2 compounds and their reported IC50.
# COMPOUND, IC50 / µM
rows = [
    ("COc1ccc(CNC(=O)c2ccc3c(c2)S(=O)(=O)N(Cc2ccc(N)cc2)C(=O)N3C)cc1", 8.8),
    ("CN1C(=O)N(Cc2ccccc2)S(=O)(=O)c2cc(C(=O)NCc3ccc(F)cc3)ccc21", 0.345),
]

[P] COc1ccc(CNC(=O)c2ccc3c(c2)S(=O)(=O)N(Cc2ccc(C#N)cc2)C(=O)N3C)cc1
[Q] COc1ccc(CNC(=O)c2ccc3c(c2)S(=O)(=O)N(Cc2ccc(C(=O)NC(C(=O)O)C(C)C)cc2)C(=O)N3C)cc1 (stereo not drawn)
[R] COc1ccc(CNC(=O)c2ccc3c(c2)S(=O)(=O)N(C(C)c2ccccc2)C(=O)N3C)cc1 (stereo not drawn)
[S] COc1cccc(CNC(=O)c2ccc3c(c2)S(=O)(=O)N(Cc2ccccc2)C(=O)N3C)c1
Please give the order of these compounds when sorted by IC50, largest value leading. Answer format: the labels, ordered as requested.
R, Q, P, S

----------
Target: MMP-9FL (full-length Gelatinase B) (Homo sapiens, UniProt P14780)
Sequence (P14780 94-707, species assumed): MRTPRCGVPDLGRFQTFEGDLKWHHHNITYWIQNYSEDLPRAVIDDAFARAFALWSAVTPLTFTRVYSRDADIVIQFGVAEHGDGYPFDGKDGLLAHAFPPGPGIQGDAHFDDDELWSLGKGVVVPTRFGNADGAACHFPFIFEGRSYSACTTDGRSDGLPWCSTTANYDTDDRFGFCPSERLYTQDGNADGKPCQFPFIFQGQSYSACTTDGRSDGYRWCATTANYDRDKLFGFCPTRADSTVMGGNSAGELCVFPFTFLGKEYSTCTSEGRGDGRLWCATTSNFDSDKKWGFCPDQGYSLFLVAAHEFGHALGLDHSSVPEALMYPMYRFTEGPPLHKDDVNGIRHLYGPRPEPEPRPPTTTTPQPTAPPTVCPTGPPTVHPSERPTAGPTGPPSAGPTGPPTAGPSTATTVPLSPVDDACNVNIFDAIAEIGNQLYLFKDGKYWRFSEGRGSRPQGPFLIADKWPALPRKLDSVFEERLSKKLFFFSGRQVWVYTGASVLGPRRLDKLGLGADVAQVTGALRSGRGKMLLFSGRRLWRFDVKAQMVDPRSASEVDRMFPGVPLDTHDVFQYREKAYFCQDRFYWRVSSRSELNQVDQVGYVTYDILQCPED
Test: Thiopeptolide hydrolysis assay, MMP-9FL
Assay type: biochemical
Conditions: Table 2; thiopeptolide substrate, HEPES pH 7.0; read-out: IC50 (μM) Versus Certain MMPs: MMP09 (FL)
Source text: The invention compounds of Formula I have been evaluated in standard assays for their ability to inhibit the catalytic activity of various MMP enzymes. Thiopeptolide substrates show virtually no decomposition or hydrolysis at or below neutral pH in the absence of a matrix metalloproteinase enzyme. Several representative compounds have been evaluated for their ability to inhibit various matrix metalloproteinase enzymes.
Recorded IC50, one value per entry.

# COMPOUND, IC50
data = [
    ("CNS(=O)(=O)c1ccc(CN2C(=O)N(C)c3ccc(C(=O)NCc4ccc(OC)cc4)cc3S2(=O)=O)cc1 [Example 18]", "> 30 µM"),
    ("COc1cccc(CNC(=O)c2ccc3c(c2)S(=O)(=O)N(Cc2ccccc2)C(=O)N3C)c1 [Example 34]", "> 30 µM"),
    ("CN1C(=O)N(Cc2ccc(C(=O)O)cc2)S(=O)(=O)c2cc(C(=O)NCc3ccccc3)ccc21 [Example 11]", "> 100 µM"),
    ("COc1ccc(CNC(=O)c2ccc3c(c2)S(=O)(=O)N(Cc2ccc(C(=O)NC(C(=O)O)C(C)C)cc2)C(=O)N3C)cc1 (centres unmarked) [Example 28]", "> 100 µM"),
    ("COc1ccc(CNC(=O)c2ccc3c(c2)S(=O)(=O)N(Cc2ccc(CC(=O)O)cc2)C(=O)N3C)cc1 [Example 30]", "> 100 µM"),
]

State the recorded IC50 for this entry: COc1cc(CNC(=O)c2ccc3c(c2)S(=O)(=O)N(Cc2ccccc2)C(=O)N3C)ccn1 [Example 21]
> 30 µM

State the recorded IC50 for this entry: CN1C(=O)N(Cc2ccc(C(=O)O)cc2)S(=O)(=O)c2cc(C(=O)NCc3ccc(F)cc3)ccc21 [Example 25]
> 100 µM

State the recorded IC50 for this entry: CN1C(=O)N(Cc2ccccc2)S(=O)(=O)c2cc(C(=O)NCc3ccc(F)cc3)ccc21 [Example 16]
> 30 µM

----------
Target: MMP-14CD (catalytic domain of MMP-14) (Homo sapiens, UniProt P50281)
Test: Thiopeptolide hydrolysis assay, MMP-14CD
Assay type: biochemical
Settings: Table 2; thiopeptolide substrate, HEPES pH 7.0; read-out: IC50 (μM) Versus Certain MMPs: MMP14 (CD)
EXPERIMENTAL ENDPOINT: IC50

State the recorded IC50 for this entry: COc1ccc(CNC(=O)c2ccc3c(c2)S(=O)(=O)N(Cc2ccc(C(=O)O)cc2)C(=O)N3C)cc1
> 100 µM

State the recorded IC50 for this entry: COc1cc(CNC(=O)c2ccc3c(c2)S(=O)(=O)N(Cc2ccccc2)C(=O)N3C)ccn1
> 100 µM
